test system: PAK3; conditions: concentration: 1 μM,replicates: in singlicate; n = 1;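 also: KINOMEscan kinase panel screen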
recorded.metric: %Inh (%)
The reply should be a number in %, with the unit left off.

Quick note, %Inh for CS(=O)(=O)Nc1ccc(-c2ccnc3[nH]ccc23)cc1 landed at 51

Quick note, %Inh for OCCn1cc(-c2cnc3nnn(Cc4ccc5ncccc5c4)c3n2)cn1 landed at 0

Quick note, %Inh for O=C(Nc1ccc(Oc2ccc3nc(NC(=O)C4CC4)cn3n2)c(F)c1)c1cccn(-c2ccccc2)c1=O landed at 0

Quick note, %Inh for C[C@@H](Oc1cc(-n2cnc3cc(-c4cnn(C)c4)ccc32)sc1C(N)=O)c1ccccc1Cl landed at 63

Quick note, %Inh for COC(=O)c1cccc(NC(=O)NC2CCN(c3ccnc(Nc4cc(OC)c(OC)c(OC)c4)n3)C2)c1 (stereo not drawn) landed at 18

Quick note, %Inh for c1ccc(Oc2ccc(Nc3ccnc4ccc(-c5ccccn5)cc34)cc2)cc1 landed at 0

Quick note, %Inh for Cn1ccc2ncnc(Oc3ccc(NC(=O)Nc4ccnc(C(F)(F)F)c4)c(Cl)c3)c21 landed at 100

Quick note, %Inh for Cc1cccc(-c2nc(Nc3ccncc3)c3sccc3n2)n1 landed at 50

Quick note, %Inh for CN(c1cccc(CNc2nc(Nc3ccc4c(c3)CC(=O)N4)ncc2C(F)(F)F)c1)S(C)(=O)=O landed at 0

Quick note, %Inh for Cl.Cl.NC[C@H](CC1CCCCC1)NC(=O)c1ccc(-c2ccnc3[nH]ccc23)s1 landed at 94.8

Quick note, %Inh for Cc1cccc2c(-c3ccncc3)c(-c3ccc(F)cc3)nn12.Cl landed at 100

Quick note, %Inh for O=C1NCCc2[nH]c(-c3ccncc3)cc21 landed at 42

====

Consider the following compounds; for each one, report its %Inh.
test system: ZAP70; settings: concentration: 1 μM,replicates: in singlicate; n = 1
The reply should be a number in %, with the unit left off.

Quick note, %Inh for Cl.Cl.NC[C@H](CC1CCCCC1)NC(=O)c1ccc(-c2ccnc3[nH]ccc23)s1 [GSK1581428] landed at 0

Quick note, %Inh for COc1cccc(C2=C(Nc3cccc(Cl)c3)C(=O)NC2=O)c1 [SB-341556] landed at 1

Quick note, %Inh for CCn1c(-c2nonc2N)nc2cncc(CNC3CCNCC3)c21.Cl [SB-747651] landed at 32

Quick note, %Inh for CC(C(=O)NC1CCN(c2ccnc(Nc3ccc(F)cc3)n2)C1)c1ccc(Cl)cc1 (stereo not shown) [GSK1379713] landed at 0

Quick note, %Inh for CN1CCN(CCCNc2nccc(-c3c(-c4ccc(F)cc4)nn4cc(C(N)=O)ccc34)n2)CC1 [GW622475] landed at 0

Quick note, %Inh for CC(=O)Nc1nc2cnc(Nc3cc(NC(=O)c4cccc(CC(C)(C)C#N)c4)ccc3C)nc2s1 landed at 5

Quick note, %Inh for COc1cc2nccc(Nc3ccc(Oc4ccccc4)cc3)c2cc1OC.Cl [GI261656] landed at 0

====

test system: HIPK2; settings: concentration: 1 μM,replicates: in singlicate; n = 1
Consider the following molecules; for each one, report its %Inh.
The reply should be a number in %, with the unit left off.

Quick note, %Inh for CSc1nccc(-c2c(-c3ccc(F)cc3)ncn2CCCN2CCOCC2)n1.Cl landed at 0

Quick note, %Inh for COC(=O)Nc1nc2cc(Oc3ccc(NC(=O)Nc4cc(C(F)(F)F)ccc4Cl)cc3)ccc2[nH]1.Cl landed at 0

Quick note, %Inh for CC(=O)c1c(-c2ccncc2)[nH]c(-c2ccncc2)c1C landed at 0

Quick note, %Inh for Cc1cccc2c(-c3ccncc3)c(-c3ccc(F)cc3)nn12.Cl landed at 0

Quick note, %Inh for COc1cc(Nc2nccc(N3CCC(NC(=O)c4cccc(C#N)c4)C3)n2)cc(OC)c1OC (centres unmarked) landed at 0

====

tested on: NEK5; conditions: concentration: 1 μM,replicates: in singlicate; n = 1
Consider the following molecules; for each one, report its %Inh.
The reply should be a number in %, with the unit left off.

Result for Cc1cccc(-c2nc(Nc3ccncc3)c3sccc3n2)n1 , tested on NEK5, %Inh: 4

Result for Cc1ccn2nc(-c3ccc(F)cc3)c(-c3ccncc3)c2c1.Cl , tested on NEK5, %Inh: 0

Result for C[C@@H](Oc1cc(-n2cnc3cc(-c4ccncc4)ccc32)sc1C(N)=O)c1ccccc1Cl , tested on NEK5, %Inh: 82

Result for Cc1ccc(Nc2ccnc(Nc3ccc4c(c3)CS(=O)(=O)C4)n2)cc1O.Cl , tested on NEK5, %Inh: 70

Result for COc1cc(Nc2nccc(N3CCC(NC(=O)c4cccc(C#N)c4)C3)n2)cc(OC)c1OC (stereo not drawn) , tested on NEK5, %Inh: 97.1

Result for Cc1nnc(-c2ccc3occ(-c4ccc(S(C)=O)cc4)c3n2)o1 (stereo not drawn) , tested on NEK5, %Inh: 0

Result for O=C(Nc1ccc(Oc2ccc3nc(NC(=O)C4CC4)cn3n2)c(F)c1)c1cccn(-c2ccccc2)c1=O , tested on NEK5, %Inh: 54

Result for Nc1nccc(-c2ccc3c(N)n[nH]c3c2)n1 , tested on NEK5, %Inh: 4

Result for CS(=O)(=O)c1cccc(CNc2nc(Nc3ccc4c(c3)[C@@H]3C[C@@H]4CNC3=O)ncc2C(F)(F)F)c1 , tested on NEK5, %Inh: 0

Result for Cn1cc(-c2cccc3c(N)c(C(N)=O)nnc23)cn1 , tested on NEK5, %Inh: 6

Result for NC(=O)Nc1sc(-c2ccc(F)cc2)cc1C(N)=O , tested on NEK5, %Inh: 36

Result for O=C1NCCc2[nH]c(-c3ccncc3)cc21 , tested on NEK5, %Inh: 2

Result for O=C(Nc1cccc(C(F)(F)F)c1)c1cccc(Oc2ccc3nccn3n2)c1 , tested on NEK5, %Inh: 12

Result for Cc1ccc(C(=O)Nc2ccc(Oc3ccc4nc(NC(=O)C5CC5)cn4c3)c(F)c2)c(=O)n1-c1ccccc1 , tested on NEK5, %Inh: 0

Result for COc1cccc(CNC(=O)NC2CCN(c3ccnc(Nc4cc(OC)c(OC)c(OC)c4)n3)C2)c1 (stereo not drawn) , tested on NEK5, %Inh: 95.9

Result for CC(=O)Nc1nc2cnc(Nc3cc(NC(=O)c4cccc(CC(C)(C)C#N)c4)ccc3C)nc2s1 , tested on NEK5, %Inh: 0

Result for CN1CCN(CCNc2nc3cc(Oc4ccc(NC(=O)Nc5cc(C(F)(F)F)ccc5F)cc4)ccc3[nH]2)CC1.Cl.Cl , tested on NEK5, %Inh: 1

Result for OCCn1cc(-c2cnc3nnn(Cc4ccc5ncccc5c4)c3n2)cn1 , tested on NEK5, %Inh: 0

Result for CN(c1ccc2c(c1)nc(NCc1ccc(F)cc1)n2C)c1ccnc(Nc2ccc(CS(C)(=O)=O)cc2)n1.Cl , tested on NEK5, %Inh: 0

Result for COc1cc2nccc(Nc3ccc(Oc4ccccc4)cc3)c2cc1OC.Cl , tested on NEK5, %Inh: 0

Result for CCn1c(-c2nonc2N)nc2cncc(CNC3CCNCC3)c21.Cl , tested on NEK5, %Inh: 2

====

system: LKB1; construct: gene STK11; settings: concentration: 1 μM,replicates: in singlicate; n = 1
Consider the following compounds; for each one, report its %Inh.
The reply should be a number in %, with the unit left off.

Quick note, %Inh for COc1cc2nccc(Nc3ccc(Oc4ccccc4)cc3)c2cc1OC.Cl [GI261656] landed at 13

Quick note, %Inh for O=c1[nH]cc(-c2ccc(O)cc2)c2sc(-c3ccncc3)cc12 [GSK1033723] landed at 13

Quick note, %Inh for Cc1ccn2nc(-c3ccc(F)cc3)c(-c3ccncc3)c2c1.Cl [GW457859] landed at 10

Quick note, %Inh for Cc1cccc(-c2nc(Nc3ccncc3)c3sccc3n2)n1 [GW869641] landed at 0

Quick note, %Inh for Cn1ccc2ncnc(Oc3ccc(NC(=O)Nc4cncc(C(F)(F)F)c4)c(Cl)c3)c21 landed at 0

Quick note, %Inh for COc1cccc(OC)c1C(=O)Nc1cccc(-c2nn3ccccc3c2-c2ccnc(Nc3cccc(F)c3)n2)c1 [GSK361065] landed at 6

Quick note, %Inh for O=C(NOCC1CC1)c1cc(Br)c(F)c(F)c1Nc1ccc(I)cc1Cl landed at 7

Quick note, %Inh for COc1cc2c(Nc3ccc(NC(=O)c4ccccc4)cc3)ncnc2cc1OCCCN1CCOCC1 [GSK301329] landed at 0

Quick note, %Inh for CS(=O)(=O)Nc1ccc(-c2ccnc3[nH]ccc23)cc1 [GSK993273] landed at 0

Quick note, %Inh for Cc1ccc2c(-c3ccnc(Nc4ccc(C(F)(F)F)cc4)n3)cnn2n1 [GW819776] landed at 24

Quick note, %Inh for CC(=O)Nc1ccc(-c2cc3ncnc(SCC(=O)O)c3s2)cc1 landed at 0

Quick note, %Inh for OCCn1cc(-c2cnc3nnn(Cc4ccc5ncccc5c4)c3n2)cn1 landed at 3

Quick note, %Inh for Cc1n[nH]c2cc(Nc3ccnc(Nc4cccc(CN5CCOCC5)c4)n3)ccc12 [GW682569] landed at 17

Quick note, %Inh for COC(=O)c1cccc(NC(=O)NC2CCN(c3ccnc(Nc4cc(OC)c(OC)c(OC)c4)n3)C2)c1 (stereo not drawn) [GSK1379767] landed at 0

Quick note, %Inh for Cn1cc(-c2cccc3c(N)c(C(N)=O)nnc23)cn1 landed at 0

Quick note, %Inh for O=C1NCCc2[nH]c(-c3ccncc3)cc21 landed at 0

Quick note, %Inh for C[C@@H](Oc1cc(-n2cnc3ccc(-c4ccncc4)cc32)sc1C(N)=O)c1ccccc1Cl [GSK483724] landed at 0

Quick note, %Inh for CC(=O)Nc1nc2cnc(Nc3cc(NC(=O)c4cccc(CC(C)(C)C#N)c4)ccc3C)nc2s1 landed at 1
